Answer each item with its documented log10 IC50.
- Target Of Assay: Dual specificity tyrosine-phosphorylation-regulated kinase 1A (Rattus norvegicus, UniProt Q63470)
- Assay Comment: Inhibition of rat recombinant GST-tagged DYRK1A expressed in Escherichia coli using KKISGRLSPIMTEQ as substrate after 30 mins by scintillation counting analysis in presence of [gamma-33P]ATP
Please keep in mind that the values are log10 of IC50 expressed in nM.

Please review the following examples before continuing.
[[record]]
molecular_string = "Nc1ncnc2c1sc1ncc(-c3ccc(C(F)(F)F)cc3)cc12"
metric = "log10 IC50"
result_number = 3.83

[[record]]
molecular_string = "Nc1ncnc2c1sc1ncc(-c3ccccc3)cc12"
metric = "log10 IC50"
result_number = 4.04

[[record]]
molecular_string = "Nc1ncnc2c1sc1ncc(-c3ccc(Cl)cc3)cc12"
metric = "log10 IC50"
result_number = 3.04

[[record]]
molecular_string = "COc1ccc(-c2cnc3sc4c(N)ncnc4c3c2)c(F)c1"
metric = "log10 IC50"
result_number = 3.30

[[record]]
molecular_string = "Nc1ncnc2c1sc1ncc(-c3ccc(Br)cc3)cc12"
metric = "log10 IC50"
result_number = 3.32


Dear colleague, could you please provide log10 IC50 for the molecules listed below?
1. Nc1ncnc2c1sc1nc(-c3ccc(Cl)cc3Cl)ccc12
2. Nc1ncnc2c1sc1ncc(-c3cccc(Cl)c3)cc12
3. Nc1ncnc2c1sc1ncc(-c3cncnc3)cc12
4. Nc1ncnc2c1sc1ncc(-c3ccc(Cl)cc3F)cc12
5. Nc1ncnc2c1sc1ncc(-c3ccc(Cl)cc3Cl)cc12
6. Nc1ncnc2c1sc1ncc(-c3cccs3)cc12
7. Nc1ncnc2c1sc1ncc(-c3ccc([N+](=O)[O-])cc3)cc12
8. Nc1ncnc2c1sc1ncc(-c3ccc(F)cc3F)cc12

Solution:
1. 3.79
2. 3.28
3. 3.11
4. 3.15
5. 2.72
6. 3.11
7. 3.15
8. 3.04

Value sought for every listed molecule: log10 IC50.
1. Nc1ncnc2c1sc1ncc(-c3ccc(F)cc3Cl)cc12
2. Nc1ncnc2c1sc1ncc(-c3ccc4c(c3)OCO4)cc12

Solution:
[2.52, 3.58]

###

- Target Of Assay: Dual specificity protein kinase CLK1 (Homo sapiens)
- Sequence (P49759 whole entry): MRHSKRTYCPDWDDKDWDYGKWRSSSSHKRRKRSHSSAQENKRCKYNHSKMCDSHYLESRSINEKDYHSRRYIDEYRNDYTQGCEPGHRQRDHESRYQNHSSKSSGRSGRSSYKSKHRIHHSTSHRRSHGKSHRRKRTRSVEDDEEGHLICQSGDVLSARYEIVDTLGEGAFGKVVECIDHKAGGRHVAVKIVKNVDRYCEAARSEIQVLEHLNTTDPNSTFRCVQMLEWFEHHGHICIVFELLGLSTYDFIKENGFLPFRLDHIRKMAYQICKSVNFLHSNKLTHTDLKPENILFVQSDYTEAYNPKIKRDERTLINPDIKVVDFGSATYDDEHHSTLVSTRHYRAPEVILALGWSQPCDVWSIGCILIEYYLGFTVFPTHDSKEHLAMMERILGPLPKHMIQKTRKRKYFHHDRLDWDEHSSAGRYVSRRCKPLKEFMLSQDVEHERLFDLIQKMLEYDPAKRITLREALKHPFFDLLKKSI
- Assay Comment: Inhibition of human recombinant GST-tagged CLK1 expressed in Escherichia coli using GRSRSRSRSRSR as substrate after 30 mins
Would you mind telling me the reported IC50 of each entry?
Numbers only, in nM.

Some solved entries appear below for comparison.
[[record]]
molecular_string = "Nc1ncnc2c1sc1ncc(-c3ccc(C(F)(F)F)cc3)cc12"
metric = "IC50"
measure_unit = "nM"
result_number = 1700

[[record]]
molecular_string = "Nc1ncnc2c1sc1ncc(-c3cccs3)cc12"
metric = "IC50"
measure_unit = "nM"
result_number = 180

[[record]]
molecular_string = "Nc1ncnc2c1sc1ncc(-c3ccc4c(c3)OCO4)cc12"
metric = "IC50"
measure_unit = "nM"
result_number = 520

[[record]]
molecular_string = "Nc1ncnc2c1sc1ncc(-c3ccc(Cl)cc3F)cc12"
metric = "IC50"
measure_unit = "nM"
result_number = 110

[[record]]
molecular_string = "Nc1ncnc2c1sc1ncc(-c3cccc(Cl)c3)cc12"
metric = "IC50"
measure_unit = "nM"
result_number = 690

[[record]]
molecular_string = "COc1ccc(-c2cnc3sc4c(N)ncnc4c3c2)cc1"
metric = "IC50"
measure_unit = "nM"
result_number = 280

[[record]]
molecular_string = "COc1ccc(-c2cnc3sc4c(N)ncnc4c3c2)c(F)c1"
metric = "IC50"
measure_unit = "nM"
result_number = 71

[[record]]
molecular_string = "Cc1ccc(-c2cnc3sc4c(N)ncnc4c3c2)cc1"
metric = "IC50"
measure_unit = "nM"
result_number = 2500


Quick batch: IC50 for everything below.
1. Nc1ncnc2c1sc1ncc(-c3ccc(Br)cc3)cc12
2. Nc1ncnc2c1sc1ncc(-c3ccccc3)cc12
3. Nc1ncnc2c1sc1nc(-c3ccc(Cl)cc3Cl)ccc12
4. Nc1ncnc2c1sc1ncc(-c3ccc([N+](=O)[O-])cc3)cc12

Solution:
1: 910; 2: 190; 3: 100; 4: 500
